# Test system: Klebsiella pneumoniae 417
# protocolText: In vitro antibacterial activity, two-fold agar-plate dilution method
# Type: cell-based
# conditionLabel: Klebsiella pneumoniae 417; HI-agar, 37° C., 20 hours; read-out: MIC
readoutKind: MIC (µg/mL)

Solved cases below.
compound="CO/N=C(/C(=O)NC1C(=O)N2C(C(=O)O)=C(CSc3nnnn3C)CSC12)c1csc(N)n1 (stereo not drawn)" resultunits=µg/mL readoutvalue=6.25
compound="CO/N=C(/C(=O)NC1C(=O)N2C(C(=O)O)=C(CSc3nncs3)CSC12)c1csc(NC=O)n1 (stereo not drawn)" resultunits=µg/mL readoutvalue=3.13
compound="CO/N=C(\\C(=O)NC1C(=O)N2C(C(=O)O)=C(COC(N)=O)CSC12)c1csc(NC(=O)C(F)(F)F)n1 (stereo not drawn)" resultunits=µg/mL readoutvalue=0.05

[I] CO/N=C(\C(=O)NC1C(=O)N2C(C(=O)O)=C(CSc3nncs3)CSC12)c1csc(N)n1 (stereo not drawn)
[II] CO/N=C(/C(=O)NC1C(=O)N2C(C(=O)O)=C(CSc3nnnn3C)CSC12)c1cccc(O)c1 (stereo not drawn)
Given I and II , report the one with the higher recorded MIC. Could you answer with the label of the item you picked? II

[a] CO/N=C(\C(=O)NC1C(=O)N2C(C(=O)O)=C(CSc3nncn3C)CSC12)c1csc(N)n1 (stereo not drawn)
[b] CO/N=C(\C(=O)NC1C(=O)N2C(C(=O)O)=C(CSc3nnc(C)s3)CSC12)c1csc(N)n1 (stereo not drawn)
Which record would sort first by descending MIC, a or b ? Mark your selection by writing its label. a

[I] CO/N=C(\C(=O)NC1C(=O)N2C(C(=O)O)=C(COC(C)=O)CSC12)c1csc(NC=O)n1 (stereo not drawn)
[II] CO/N=C(\C(=O)NC1C(=O)N2C(C(=O)O)=C(COC(N)=O)CSC12)c1csc(N)n1 (stereo not drawn)
[III] CO/N=C(\C(=O)NC1C(=O)N2C(C(=O)O)=C(CO)CSC12)c1csc(N)n1 (stereo not drawn)
Endpoint returns the given compounds ordered by ascending MIC. Output spec: labels arranged per the requested ranking. III, II, I
(III: 0.05 µg/mL, II: 0.5 µg/mL, I: 1.56 µg/mL)
